- Test system: A549 NSCLC
- EXPERIMENTAL_DETAILS: NCI tumour cell line growth inhibition, 48 h; in the data active = GI50 below about 0.43 µM; inactive = the rest
The categories you may choose from are TRUE = active, FALSE = inactive

## Input Tell me the recorded outcome of this test for c1ccc(-c2nn(-c3ccccc3)[n+](-c3cccc4ccccc34)n2)cc1 .
## Output FALSE

## Input Tell me the recorded outcome of this test for Cc1nc(/N=C(\N)NC(=O)Nc2ccccc2Cl)sc1C .
## Output FALSE

## Input Tell me the recorded outcome of this test for CC(=O)OCC1OC(OC2=C(CC=C(Cl)Cl)C(=O)c3ccccc3C2=O)C(OC(C)=O)C(OC(C)=O)C1OC(C)=O (centres undefined) .
## Output FALSE

## Input Tell me the recorded outcome of this test for COc1cc2c3c(n(C)c(=O)c2cc1OC)-c1cc2c(cc1/C3=C\CCCBr)OCO2 .
## Output FALSE

## Input Tell me the recorded outcome of this test for N#Cc1c(NC(=O)CN2CCOCC2)sc2c1CCCC2 .
## Output FALSE

Continuing:
## Input Tell me the recorded outcome of this test for COc1ccc(Cc2cnc(NC(=O)c3sc4ccccc4c3Cl)s2)cc1 .
## Output FALSE

## Input Tell me the recorded outcome of this test for COC(=O)[C@H](CC(C)C)NC(=O)NC(=O)NC(=O)CI .
## Output FALSE

## Input Tell me the recorded outcome of this test for COc1cc([C@@H]2c3cc4c(cc3[C@H](O)[C@H]3COC(=O)[C@H]23)OCO4)cc(OC)c1OC .
## Output TRUE

## Input Tell me the recorded outcome of this test for CC(=O)OC[C@]12CC[C@@H]([C@@H](C)C(N)=O)[C@@H]1[C@H]1CC[C@@H]3[C@@]4(C)CC[C@H](OC(C)=O)C(C)(C)[C@@H]4CC[C@@]3(C)[C@]1(C)CC2 .
## Output FALSE
